Listed here: items and their measured hERG current change (%, negative = inhibition) at 10uM.
# System under test: human ether-à-go-go-related gene (hERG) potassium channel (human, UniProt Q12809)
# Sequence (Q12809 whole entry, looked up): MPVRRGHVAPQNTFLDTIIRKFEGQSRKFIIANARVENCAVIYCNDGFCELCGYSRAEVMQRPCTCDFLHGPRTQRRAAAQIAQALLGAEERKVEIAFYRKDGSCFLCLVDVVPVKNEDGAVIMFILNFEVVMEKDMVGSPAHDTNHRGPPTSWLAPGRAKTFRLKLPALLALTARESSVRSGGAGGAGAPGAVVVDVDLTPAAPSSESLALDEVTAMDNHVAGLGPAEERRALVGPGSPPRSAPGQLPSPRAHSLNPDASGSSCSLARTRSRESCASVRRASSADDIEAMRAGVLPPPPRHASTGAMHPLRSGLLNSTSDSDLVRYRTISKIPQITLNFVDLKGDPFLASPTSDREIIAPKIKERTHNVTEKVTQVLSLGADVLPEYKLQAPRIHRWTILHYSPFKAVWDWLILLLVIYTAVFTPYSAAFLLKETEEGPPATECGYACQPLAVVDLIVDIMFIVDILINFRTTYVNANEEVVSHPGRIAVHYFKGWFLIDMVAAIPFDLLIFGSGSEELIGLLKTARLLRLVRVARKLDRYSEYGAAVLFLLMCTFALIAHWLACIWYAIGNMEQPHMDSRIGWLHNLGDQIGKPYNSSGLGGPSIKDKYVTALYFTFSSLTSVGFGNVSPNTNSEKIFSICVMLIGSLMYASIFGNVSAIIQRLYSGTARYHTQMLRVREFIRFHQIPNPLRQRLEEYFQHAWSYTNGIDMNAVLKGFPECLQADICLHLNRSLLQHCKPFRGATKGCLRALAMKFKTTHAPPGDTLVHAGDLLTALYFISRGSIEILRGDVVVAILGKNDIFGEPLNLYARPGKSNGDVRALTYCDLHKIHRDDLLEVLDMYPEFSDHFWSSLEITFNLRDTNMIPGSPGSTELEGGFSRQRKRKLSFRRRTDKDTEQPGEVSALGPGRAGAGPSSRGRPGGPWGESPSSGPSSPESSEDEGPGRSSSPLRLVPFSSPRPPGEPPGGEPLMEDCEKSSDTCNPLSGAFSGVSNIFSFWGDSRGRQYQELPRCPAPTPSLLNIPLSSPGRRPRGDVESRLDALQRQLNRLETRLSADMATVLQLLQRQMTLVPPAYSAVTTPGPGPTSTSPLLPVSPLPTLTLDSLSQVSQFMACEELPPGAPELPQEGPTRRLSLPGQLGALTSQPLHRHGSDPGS
# Test summary: primary screen, population patch clamp on CHO cells stably expressing hERG; higher = less effect of the substance
About 14,000 (4.5%) of roughly 310,000 compounds showed an effect of 50% or more. The effect is printed as a negative number. The full list was thinned out, with strong results kept by preference.
Write down the numeric answer in % and omit the unit.

Compound	Unit name	Assay value
CCCN1CCN(C(=O)Cn2c(=O)oc3cc(S(=O)(=O)NCc4ccccc4)ccc32)CC1	%	-6.53
O=C1CN(O)C=C2N=c3ccccc3=C2N1c1ccc([N+](=O)[O-])cc1	%	-26.6
Cc1cccc(Nc2ccc(S(=O)(=O)N3CCOCC3)cc2[N+](=O)[O-])c1	%	-30.2
Cc1cccc(-c2c3c(=O)n(C)c(=O)n(C)c3cn2-c2ccccc2O)c1	%	1.06
CCOc1ncccc1C(=O)NNC(=O)c1cccc(S(=O)(=O)Nc2ccc(OC)cc2)c1	%	6.87
Cc1cccc(N2CC(C)Cn3c2nc2c3c(=O)[nH]c(=O)n2C)c1 (stereo not drawn)	%	-0.757
O=C1c2ccccc2S(=O)(=O)c2cc(C(=O)N3CCC(O)CC3)ccc21	%	6.7
S=C(Nc1ccc(Oc2ccc(NC(=S)NC3CCCCC3)cc2)cc1)NC1CCCCC1	%	17.6

// switching to the query compound
Consider the compound `O=C(CCC(=O)N1CCSc2ccccc21)NCc1ccc(Cl)cc1` . State its measured hERG current change (%, negative = inhibition) at 10uM.
-33.8

###

# System under test: human ether-à-go-go-related gene (hERG) potassium channel (human)
# Test summary: primary screen, population patch clamp on CHO cells stably expressing hERG; higher = less effect of the substance
Out of some 310,000 compounds screened, about 14,000 (4.5%) showed an effect of 50% or more. The effect is printed as a negative number. Shown is part of a subset that was picked to be rich in strong results.
Endpoint: hERG current change (%, negative = inhibition) at 10uM (%)
Supply the numeric figure in %, leaving out any unit text.

Compound	System under test	Assay value
Cc1csc(-c2coc3cc(O)cc(C)c3c2=O)n1	human ether-à-go-go-related gene (hERG) potassium channel (human)	2.27
CCOc1ccc(CC(=O)NC2CCN(Cc3ccccc3)CC2)cc1	human ether-à-go-go-related gene (hERG) potassium channel (human)	-6.23
NC(=O)CSc1nnc(-c2ccco2)n1-c1ccccc1	human ether-à-go-go-related gene (hERG) potassium channel (human)	16.1
CCn1nc(CC(=O)O)c2ccccc2c1=O	human ether-à-go-go-related gene (hERG) potassium channel (human)	22.9
O=C(Nc1ccc(Nc2ccccc2)cc1)c1c(F)c(F)c(F)c(F)c1F	human ether-à-go-go-related gene (hERG) potassium channel (human)	22.9
O=C(CSc1nnc(-c2ccco2)n1-c1ccccc1)NCc1ccco1	human ether-à-go-go-related gene (hERG) potassium channel (human)	-67.8
CC(=O)Nc1ccc(OCC(O)CNC2CCCC2)cc1.Cl (stereo not drawn)	human ether-à-go-go-related gene (hERG) potassium channel (human)	6.24
CCC(COC)NCc1cn(-c2ccc(OC)cc2)nc1-c1cccc(F)c1 (stereo not drawn)	human ether-à-go-go-related gene (hERG) potassium channel (human)	-70.3

Provide hERG current change (%, negative = inhibition) at 10uM, tested on human ether-à-go-go-related gene (hERG) potassium channel (human), for COc1ccccc1NCC(O)COc1ccc(C(C)(C)C)cc1.O=C(O)C(=O)O (stereo not drawn) .
6.79

Specify the recorded hERG current change (%, negative = inhibition) at 10uM for `CN(Cc1ccccc1)C(=O)CSc1nnc(-c2ccco2)n1-c1ccccc1` , system: human ether-à-go-go-related gene (hERG) potassium channel (human).
-80.2

Name the recorded hERG current change (%, negative = inhibition) at 10uM of `Cc1cccc(-n2c(SCC(=O)NCc3ccco3)nnc2-c2ccco2)c1` , assay system human ether-à-go-go-related gene (hERG) potassium channel (human).
-75.7

Param request: hERG current change (%, negative = inhibition) at 10uM | system human ether-à-go-go-related gene (hERG) potassium channel (human) | item CN(C)c1ccc(/C=N/NC(=O)C2CC2c2ccccc2)cc1 (stereo not drawn)
-74.9

Fetch value of hERG current change (%, negative = inhibition) at 10uM on human ether-à-go-go-related gene (hERG) potassium channel (human) for COc1ccc(-c2nn(-c3ccccc3)cc2CNC(C)Cn2cncn2)c(F)c1 (stereo not drawn) .
-13

Param request: hERG current change (%, negative = inhibition) at 10uM | system human ether-à-go-go-related gene (hERG) potassium channel (human) | item `C#CCOc1ccccc1CNC1CCN(Cc2ccccc2)CC1.O=C(O)C(=O)O`
-29.3

Name the recorded hERG current change (%, negative = inhibition) at 10uM of `O=C(CSc1nnc(-c2ccccc2)n1-c1ccccc1)NCc1ccco1` , assay system human ether-à-go-go-related gene (hERG) potassium channel (human).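 Also: peak tail current of the secondary pulse compared with the same well before compound.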
1.47

GET hERG current change (%, negative = inhibition) at 10uM | system: human ether-à-go-go-related gene (hERG) potassium channel (human) | item: `CC(C)NCCCOc1ccc(C(C)(C)c2ccccc2)cc1.O=C(O)C(=O)O`;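 also: peak tail current of the secondary pulse compared with the same well before compound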
7.21

Give measured hERG current change (%, negative = inhibition) at 10uM for `COc1ccc(CNCCc2ccccc2)cc1OCC(N)=O` (human ether-à-go-go-related gene (hERG) potassium channel (human)).
-12

Provide measured hERG current change (%, negative = inhibition) at 10uM on human ether-à-go-go-related gene (hERG) potassium channel (human) for `CC(=O)CSc1nnc(-c2ccco2)n1-c1ccccc1` please.
-11.7

Return reported hERG current change (%, negative = inhibition) at 10uM for target or system human ether-à-go-go-related gene (hERG) potassium channel (human), item `Cc1nnc(SCC(=O)NCc2ccco2)n1-c1ccccc1` .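 Also: peak tail current of the secondary pulse compared with the same well before compound.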
26.1

State, for human ether-à-go-go-related gene (hERG) potassium channel (human), measured hERG current change (%, negative = inhibition) at 10uM of the compound listed here: COc1cccc(-c2nn(-c3ccccc3)cc2CN(C)C(C)c2ccncn2)c1 (stereo not drawn)
-15.6

// fetch hERG current change (%, negative = inhibition) at 10uM for `CN(C)c1ccc(/C=N/NC(=O)c2ccccc2)cc1` ; system: human ether-à-go-go-related gene (hERG) potassium channel (human);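 also: peak tail current of the secondary pulse compared with the same well before compound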
10.9
